Test: Pharmacokinetics after intravenous injection
Format: in vivo
Conditions: female, Sprague-Dawley, rat, rats, i.v. 12.5 mg/kg TGC, plasma
measured-quantity: half-life (min)

>>> readout_number("CN(C)c1cc(NC(=O)CNC(C)(C)C)c(O)c2c1C[C@H]1C[C@H]3[C@H](N(C)C)C(O)=C(C(N)=O)C(=O)[C@@]3(O)C(O)=C1C2=O [Free-TGC, Tigecycline]")
46.2

* * *

Test: Pharmacokinetics after intravenous injection
Assay type: in vivo
Conditions: female, Sprague-Dawley, rat, rats, i.v. 12.5 mg/kg TGC, plasma, read-out: MRT(0-t)
measured-quantity: MRT last (h)

>>> readout_number("CN(C)c1cc(NC(=O)CNC(C)(C)C)c(O)c2c1C[C@H]1C[C@H]3[C@H](N(C)C)C(O)=C(C(N)=O)C(=O)[C@@]3(O)C(O)=C1C2=O [Free-TGC, Tigecycline]")
2.6

* * *

Test: Hemolysis assay
Design: species or system rats
Conditions: rat; 2% erythrocyte suspension, 37 °C, three hours, relative to positive control (water); read-out: hemolysis rate
measured-quantity: hemolysis at 3 h

>>> result("CN(C)c1cc(NC(=O)CNC(C)(C)C)c(O)c2c1C[C@H]1C[C@H]3[C@H](N(C)C)C(O)=C(C(N)=O)C(=O)[C@@]3(O)C(O)=C1C2=O [Free-TGC, Tigecycline]")
"< 5%"

* * *

Test: Pharmacokinetics after intravenous injection
Type: in vivo
Conditions: female, Sprague-Dawley, rat, rats, i.v. 12.5 mg/kg TGC, plasma
measured-quantity: Tmax (min)

>>> readout_number("CN(C)c1cc(NC(=O)CNC(C)(C)C)c(O)c2c1C[C@H]1C[C@H]3[C@H](N(C)C)C(O)=C(C(N)=O)C(=O)[C@@]3(O)C(O)=C1C2=O [Free-TGC, Tigecycline]")
15

* * *

Test: Pharmacokinetics after intravenous injection
Type: in vivo
Conditions: female, Sprague-Dawley, rat, rats, i.v. 12.5 mg/kg TGC, plasma
measured-quantity: Cmax (ng/mL)

>>> readout_number("CN(C)c1cc(NC(=O)CNC(C)(C)C)c(O)c2c1C[C@H]1C[C@H]3[C@H](N(C)C)C(O)=C(C(N)=O)C(=O)[C@@]3(O)C(O)=C1C2=O [Free-TGC, Tigecycline]")
3700

* * *

Experiment: Pharmacokinetics after intravenous injection
Assay type: in vivo
Details: female, Sprague-Dawley, rat, rats, i.v. 12.5 mg/kg TGC, plasma, 0-8 h
measured-quantity: AUC(0-t) (ng·h/mL)

>>> readout_number("CN(C)c1cc(NC(=O)CNC(C)(C)C)c(O)c2c1C[C@H]1C[C@H]3[C@H](N(C)C)C(O)=C(C(N)=O)C(=O)[C@@]3(O)C(O)=C1C2=O [Free-TGC, Tigecycline]")
8480
